test system: ATP; experiment: switch fluorescence ratio, 500 uM ATP over buffer (Cy3 cluster intensity, sum of 5 cycles each) (fold (ratio)); higher = stronger signal-on switching upon ATP binding; sequences stand for … in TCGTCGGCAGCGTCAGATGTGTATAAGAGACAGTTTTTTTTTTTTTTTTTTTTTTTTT…TC; settings: aptamer strand: ATP DNA aptamer (quencher-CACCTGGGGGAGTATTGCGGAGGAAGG + anchor), 100 nM annealed; ATP concentration: 500 uM;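 also: ATP exposure 15 min at 22 °C before imaging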
# cutoff 1 applies to switch fluorescence ratio; >= gives 1, < gives 0

Worked set:
[[record]]
macromoleculesequence = "CAATATCTCC"
targetortestsystem = "ATP"
assignedlabel = 1

[[record]]
macromoleculesequence = "GGTAGTCGGG"
targetortestsystem = "ATP"
assignedlabel = 0

[[record]]
macromoleculesequence = "TGAGATTTGT"
targetortestsystem = "ATP"
assignedlabel = 1


Ask: Has CAAAACTTGC a recorded switch fluorescence ratio greater than or equal to 1?
Result: 1
